# target or test system: T1, human soluble urokinase plasminogen activator receptor (suPAR) (human, UniProt Q03405 23-303, limits assumed)
# T1 construct: Target antigen of the off-rate screen; also called hsuPAR; human suPAR
# T1 sequence (Q03405 23-303 limits assumed): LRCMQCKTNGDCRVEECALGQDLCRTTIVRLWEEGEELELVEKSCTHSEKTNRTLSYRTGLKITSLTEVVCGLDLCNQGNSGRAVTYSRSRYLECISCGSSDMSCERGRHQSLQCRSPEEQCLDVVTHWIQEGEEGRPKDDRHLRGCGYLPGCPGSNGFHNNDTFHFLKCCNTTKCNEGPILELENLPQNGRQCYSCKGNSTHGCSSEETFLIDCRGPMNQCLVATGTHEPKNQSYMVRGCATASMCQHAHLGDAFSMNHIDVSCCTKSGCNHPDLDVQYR
# protocol summary: off-rate (kdis) screen of scFv clones, biosensor (Octet)
Threshold rule: koff greater than or equal to 0.006 s⁻¹ is label 1; below that, label 0.

Evaluate suPAR_DB01_E12 (scFv, V domains shown, screened as scFv) VH: QVQLVQSGAEVKKPGASVKVSCKASGGTFSSYAISWVRQAPGQGLEWLGVINPGGGGTNYAQKFQGRVTMTRDTSTSTVYMELSSLRSEDTAVYYCARGYDVDWFVTWGQGTLVTVSS VL: DIQMTQSPSSLSASVGDRVTITCQASQDISNYINWYQQKPGKAPKLLIYDASNLASGVPSRFSGSGSGTDFTLTISSLQPEDFATYYCQQYHSYPPTFGGGTKVEIK : koff at minimum 0.006 s⁻¹?
label 1

Evaluate suPAR_DB01_A07 (scFv, V domains shown, screened as scFv) VH: QVQLVQSGAEVKKPGASVKVSCKASGGTFTSYYMHWVRQAPGQGLEWMGWIDHENGSTSYDQKFQGRVTMTRDTSTSTVYMELSSLRSEDTAVYYCARGYDVDWFVYWGQGTLVTVSS VL: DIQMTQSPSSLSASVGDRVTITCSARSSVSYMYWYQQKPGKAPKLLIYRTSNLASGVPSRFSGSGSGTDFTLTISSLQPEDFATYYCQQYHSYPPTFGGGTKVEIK : koff at minimum 0.006 s⁻¹?
label 0

Evaluate suPAR_DB01_B03 (scFv, V domains shown, screened as scFv) VH: QVQLVQSGAEVKKPGASVKVSCKASGFNIKDYYIHWVRQAPGQGLEWMGWIDPENGNTIYAQKFQGRVTMTRDTSTSTVYMELSSLRSEDTAVYYCARGYDVDWFVYWGQGTLVTVSS VL: DIQMTQSPSSLSASVGDRVTITCRASSSVSYMYWYQQKPGKAPKLLIYRTSNLASGVPSRFSGSGSGTDFTLTISSLQPEDFATYYCQQYHSYPPTFGGGTKVEIK : koff at minimum 0.006 s⁻¹?
label 0

Evaluate suPAR_DB01_C04 (scFv, V domains shown, screened as scFv) VH: QVQLVQSGAEVKKPGASVKVSCKASGYTFTGYYMHWVRQAPGQGLEWMGWIDPEGGSTIYDQKFQGRVTMTRDTSTSTVYMELSSLRSEDTAVYYCARGYDVDWFVYWGQGTLVTVSS VL: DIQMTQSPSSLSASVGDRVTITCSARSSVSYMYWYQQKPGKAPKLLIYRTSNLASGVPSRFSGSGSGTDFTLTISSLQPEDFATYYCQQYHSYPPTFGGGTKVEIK : koff at minimum 0.006 s⁻¹?
label 0

Evaluate suPAR_DB01_A11 (scFv, V domains shown, screened as scFv) VH: QVQLVQSGAEVKKPGASVKVSCKASGYTFTNYYMHWVRQAPGQGLEWMGWIDHENGNTIYDQKFQGRVTMTRDTSTSTVYMELSSLRSEDTAVYYCARGYDVDWFVYWGQGTLVTVSS VL: DIQMTQSPSSLSASVGDRVTITCSASQSVSYMYWYQQKPGKAPKLLIYRTSNLASGVPSRFSGSGSGTDFTLTISSLQPEDFATYYCQQYHSYPPTFGGGTKVEIK : koff at minimum 0.006 s⁻¹?
label 0
